Measured cell viability values are reported for all entries that follow.
System: HCI01 (cells of a triple-negative basal-like breast cancer xenograft);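 further: PDX cells carrying CMV promoter-driven luciferase, viability read as total photon flux per second by IVIS imaging following D-luciferin, vehicle control 0.1% DMSO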
experiment_summary: cell viability (% of vehicle); higher = less cytotoxic
condition_context: 10 µM; 72 h
// return a plain number; no unit text

Before answering, review these 3 worked examples.
molecule	cell viability
NC(=O)c1cccnc1 [Nicotinamide]	95.4
CC(=O)c1c(C)c2cnc(Nc3ccc(N4CCNCC4)cn3)nc2n(C2CCCC2)c1=O.O=S(=O)(O)CCO	154
CC(C)C(N)C(=O)OCC(CO)OCn1cnc2c(=O)nc(N)[nH]c21.Cl (stereo not given) [Valganciclovir HCl]	96.1

The molecule OCC(O)CN1CCN(c2ccccc2)CC1 (stereo not given) showed cell viability equal to 97.2

Record CCCCNc1cc(C(=O)O)cc(S(N)(=O)=O)c1Oc1ccccc1 [Bumetanide] , field cell viability: 109

In plain terms, CCCCCCCCCC(=O)NC(Cc1c[nH]c2ccccc12)C(=O)NC(CC(N)=O)C(=O)NC(CC(=O)O)C(=O)NC1C(=O)NCC(=O)NC(CCCN)C(=O)NC(CC(=O)O)C(=O)NC(C)C(=O)NC(CC(=O)O)C(=O)NCC(=O)NC(CO)C(=O)NC(C(C)CC(=O)O)C(=O)NC(CC(=O)c2ccccc2N)C(=O)OC1C (stereo not given) has a documented cell viability of 142

The molecule listed as CC1C(NC(=O)C(=NOC(C)(C)C(=O)O)c2csc(N)n2)C(=O)N1S(=O)(=O)O (stereo not given) has a reported cell viability of 104
